Reference source for all entries: ChEMBL document CHEMBL1159115

Catalogue of compounds with associated pIC50
target: Gamma-secretase; assay: Inhibition of gamma-secretase in human SHSY5Y cells expressing human recombinant APP assessed as amyloid beta40 formation by ELISA; format: cell-based; settings: sh-sy5y; in the assay text read “amyloid beta42 formation” for “amyloid beta40 formation”
A bare number is all that is needed in reply.

Completed entries (count: 3):
- CCCCC[C@H](c1ccc(C(F)(F)F)nc1)N1CC[C@@H](CC(=O)[O-])C[C@H]1c1ccc(C(F)(F)F)cc1.[Na+]: 5.9
- Cc1cccc([C@@H](CCC(C)C)N2CC[C@@H](CC(=O)[O-])C[C@H]2c2ccc(C(F)(F)F)cc2)n1.[Na+]: 5.9
- CCCC[C@H](c1ccc(C(F)(F)F)nc1)N1CC[C@@H](CC(=O)[O-])C[C@H]1c1ccc(C(F)(F)F)cc1.[Na+]: 6.2

Request: Consider the compound O=C([O-])C[C@@H]1CCN([C@H](CC2CCC2)c2ccc(C(F)(F)F)nc2)[C@H](c2ccc(C(F)(F)F)cc2)C1.[Na+] and give its measured pIC50.
Result: 6.6

Request: Consider the compound CC(C)[C@H](c1ccc(C(F)(F)F)nc1)N1CC[C@@H](CC(=O)[O-])C[C@H]1c1ccc(C(F)(F)F)cc1.[Na+] and give its measured pIC50.
Result: 5.4

Request: Consider the compound CC(C)CC[C@H](c1ccc(C(F)(F)F)cn1)N1CC[C@@H](CC(=O)[O-])C[C@H]1c1ccc(C(F)(F)F)cc1.[Na+] and give its measured pIC50.
Result: 6.5

Request: Consider the compound CC(C)CC[C@H](c1ccnc(C(F)(F)F)n1)N1CC[C@@H](CC(=O)[O-])C[C@H]1c1ccc(C(F)(F)F)cc1.[Na+] and give its measured pIC50.
Result: 6.4

====

molecular target: Gamma-secretase; experiment: Inhibition of gamma-secretase in human SHSY5Y cells expressing human recombinant APP assessed as amyloid beta42 formation by ELISA; type: cell-based; conditions: sh-sy5y; in the assay text read “amyloid beta40 formation” for “amyloid beta42 formation”
attribute-measured: pIC50
A bare number is all that is needed in reply.

Completed entries (count: 3):
• CCCCCC[C@H](c1ccc(C(F)(F)F)nc1)N1CC[C@@H](CC(=O)[O-])C[C@H]1c1ccc(C(F)(F)F)cc1.[Na+] = 4.8
• CC(C)CC[C@H](c1ccc(C(F)(F)F)cn1)N1CC[C@@H](CC(=O)[O-])C[C@H]1c1ccc(C(F)(F)F)cc1.[Na+] = 4.9
• CC(C)CC[C@H](c1cnc(C(F)(F)F)cn1)N1CC[C@@H](CC(=O)[O-])C[C@H]1c1ccc(C(F)(F)F)cc1.[Na+] = 4.7

Request: Consider the molecule CC(C)CC[C@H](c1ccc(C(F)(F)F)nn1)N1CC[C@@H](CC(=O)[O-])C[C@H]1c1ccc(C(F)(F)F)cc1.[Na+] and give its measured pIC50.
Result: 4.6

====

molecular target: Gamma-secretase; assay: Inhibition of gamma-secretase in human SHSY5Y cells expressing human recombinant APP assessed as decrease in Abeta42 level after 24 hrs by DELFIA; type: cell-based; settings: sh-sy5y
Catalogue of compounds with associated pIC50
A bare number is all that is needed in reply.

Completed entries (count: 3):
• O=C(O)Cc1ccc(-c2ccc(C(F)(F)F)cc2)c(-c2ccc(C(F)(F)F)cc2)c1 = 5.7
• CCC[C@@H](C(=O)O)c1cc(OCc2ccccc2)cc(-c2ccc(C(F)(F)F)cc2)c1 = 5.8
• O=C([O-])C[C@@H]1CCN([C@@H](c2ccc(C(F)(F)F)nc2)C2CC2)[C@H](c2ccc(C(F)(F)F)cc2)C1.[Na+] = 6

Let's switch to this compound now.
Request: Query for Gamma-secretase: what pIC50 does the record show for CCCCCC[C@H](c1ccc(C(F)(F)F)nc1)N1CC[C@@H](CC(=O)[O-])C[C@H]1c1ccc(C(F)(F)F)cc1.[Na+] ?
Result: 6

====

biological target: Gamma-secretase; test: Inhibition of gamma-secretase in human SHSY5Y cells expressing human recombinant APP assessed as amyloid beta40 formation by ELISA; conditions: sh-sy5y; in the assay text read “amyloid beta42 formation” for “amyloid beta40 formation”
attribute-measured: IC50 (µM)
# unit: µM | format: bare number

Request: Consider the compound CCC[C@@H](C(=O)O)c1cc(OCc2ccccc2)cc(-c2ccc(C(F)(F)F)cc2)c1 and give its measured IC50.
Result: 3.98

====

test: Clearance in rat blood at 1 mg/kg, iv and 2 mg/kg, po; format: ADME, organism-based
attribute-measured: clearance (mL/min/kg)
# unit: mL/min/kg | format: bare number

Request: Consider the compound CC(C)CC[C@H](c1ncc(C(F)(F)F)cn1)N1CC[C@@H](CC(=O)[O-])C[C@H]1c1ccc(C(F)(F)F)cc1.[Na+] and give its measured clearance.
Result: 9

====

test: Clearance in mouse blood at 3 mg/kg, iv and 10 mg/kg, po; assay type: ADME, organism-based
attribute-measured: clearance (mL/min/kg)
# unit: mL/min/kg | format: bare number

Request: Consider the molecule CC(C)CC[C@H](c1ccc(C(F)(F)F)nc1)N1CC[C@@H](CC(=O)[O-])C[C@H]1c1ccc(C(F)(F)F)cc1.[Na+] and give its measured clearance.
Result: 4

====

assay: Half life in mouse at 3 mg/kg, iv and 10 mg/kg, po; assay type: ADME, organism-based; details: in vivo
attribute-measured: half-life
Include the unit right after the number.

Request: Consider the molecule CC(C)CC[C@H](c1ccc(C(F)(F)F)nc1)N1CC[C@@H](CC(=O)[O-])C[C@H]1c1ccc(C(F)(F)F)cc1.[Na+] and give its measured half-life.
Result: 4.3 h

====

target: Gamma-secretase; assay: Inhibition of gamma-secretase in human SHSY5Y cells expressing human recombinant APP assessed as effect on Abeta40 level after 24 hrs by DELFIA; assay type: cell-based; details: sh-sy5y
Catalogue of molecules with associated pIC50
A bare number is all that is needed in reply.

Completed entries (count: 3):
* CCCC[C@H](c1ccc(C(F)(F)F)nc1)N1CC[C@@H](CC(=O)[O-])C[C@H]1c1ccc(C(F)(F)F)cc1.[Na+] | 4.4
* CCCCCC[C@H](c1ccc(C(F)(F)F)nc1)N1CC[C@@H](CC(=O)[O-])C[C@H]1c1ccc(C(F)(F)F)cc1.[Na+] | 4.6
* CC(C)CC[C@H](c1ccc(C(F)(F)F)nc1)N1CC[C@@H](CC(=O)[O-])C[C@H]1c1ccc(C(F)(F)F)cc1.[Na+] | 4.4

Let's switch to this molecule now.
Request: Consider the molecule CC(C)[C@H](O)C(=O)N[C@@H](C)C(=O)N[C@@H]1C(=O)N(C)CCc2ccccc21 [SEMAGACESTAT] and give its measured pIC50.
Result: 6.7

====

assay: Volume of distribution at steady state in rat at 1 mg/kg, iv and 3 mg/kg, po; assay type: ADME, organism-based; conditions: in vivo, read-out: Vdss
attribute-measured: Vd (L/kg)
# unit: L/kg | format: bare number

Request: Consider the compound CC(C)CC[C@H](c1ccc(C(F)(F)F)nc1)N1CC[C@@H](CC(=O)[O-])C[C@H]1c1ccc(C(F)(F)F)cc1.[Na+] and give its measured Vd.
Result: 2.3

====

target: Gamma-secretase (Homo sapiens) (UniProt Q96BI3+Q9NZ42+Q8WW43+P49768+Q92542+P49810); test: Inhibition of gamma-secretase in human SHSY5Y cells expressing human recombinant APP assessed as amyloid beta40 formation at 20 uM by ELISA; details: SH-SY5Y
Catalogue of compounds with associated inhibition
# unit: % | format: bare number

• CC(C)CC[C@H](c1ccc(C2CC2)nc1)N1CC[C@@H](CC(=O)[O-])C[C@H]1c1ccc(C(F)(F)F)cc1.[Na+] = 31

Request: Consider the compound CC(C)CC[C@H](c1ncc(C(C)C)cn1)N1CC[C@@H](CC(=O)[O-])C[C@H]1c1ccc(C(F)(F)F)cc1.[Na+] and give its measured inhibition.
Result: 22

Request: Consider the compound CCC[C@@H](C(=O)O)c1cc(OCc2ccccc2)cc(-c2ccc(C(F)(F)F)cc2)c1 and give its measured inhibition.
Result: 32

Request: Consider the compound O=C(O)Cc1ccc(-c2ccc(C(F)(F)F)cc2)c(-c2ccc(C(F)(F)F)cc2)c1 and give its measured inhibition.
Result: 13

====

experiment: Oral bioavailability in rat at 3 mg/kg; assay type: ADME, organism-based; conditions: in vivo
attribute-measured: bioavailability

Request: Consider the molecule CC(C)CC[C@H](c1ccc(C(F)(F)F)nc1)N1CC[C@@H](CC(=O)[O-])C[C@H]1c1ccc(C(F)(F)F)cc1.[Na+] and give its measured bioavailability.
Result: > 100%

====

system: CV-1; test: Inhibition of gamma-secretase expressed in african green monkey CV1 cells coexpressing Gal4 DNA-binding/transactivation domain assessed as inhibition of notch processing by luciferase reporter assay at 20 uM; type: cell-based
attribute-measured: inhibition (%)
# unit: % | format: bare number

Completed entries (count: 2):
• COCCC[C@H](c1ccc(C(F)(F)F)nc1)N1CC[C@@H](CC(=O)[O-])C[C@H]1c1ccc(C(F)(F)F)cc1.[Na+] = 10
• O=C([O-])C[C@@H]1CCN([C@H](Cc2ccccc2)c2ccc(C(F)(F)F)nc2)[C@H](c2ccc(C(F)(F)F)cc2)C1.[Na+] = 34

Request: Consider the compound O=C(O)Cc1ccc(-c2ccc(C(F)(F)F)cc2)c(-c2ccc(C(F)(F)F)cc2)c1 and give its measured inhibition.
Result: 23

Request: Consider the compound Cc1cccc([C@@H](CCC(C)C)N2CC[C@@H](CC(=O)[O-])C[C@H]2c2ccc(C(F)(F)F)cc2)n1.[Na+] and give its measured inhibition.
Result: 4
